Each record here notes measured pEC50.
Target: T1, human IL-36R overexpressed on 293T-hIL36R-NFκB cells (human, UniProt Q9HB29 20-575)
T1 construct: Entry includes the signal peptide; also called IL1RL2; IL-1Rrp2
T1 sequence: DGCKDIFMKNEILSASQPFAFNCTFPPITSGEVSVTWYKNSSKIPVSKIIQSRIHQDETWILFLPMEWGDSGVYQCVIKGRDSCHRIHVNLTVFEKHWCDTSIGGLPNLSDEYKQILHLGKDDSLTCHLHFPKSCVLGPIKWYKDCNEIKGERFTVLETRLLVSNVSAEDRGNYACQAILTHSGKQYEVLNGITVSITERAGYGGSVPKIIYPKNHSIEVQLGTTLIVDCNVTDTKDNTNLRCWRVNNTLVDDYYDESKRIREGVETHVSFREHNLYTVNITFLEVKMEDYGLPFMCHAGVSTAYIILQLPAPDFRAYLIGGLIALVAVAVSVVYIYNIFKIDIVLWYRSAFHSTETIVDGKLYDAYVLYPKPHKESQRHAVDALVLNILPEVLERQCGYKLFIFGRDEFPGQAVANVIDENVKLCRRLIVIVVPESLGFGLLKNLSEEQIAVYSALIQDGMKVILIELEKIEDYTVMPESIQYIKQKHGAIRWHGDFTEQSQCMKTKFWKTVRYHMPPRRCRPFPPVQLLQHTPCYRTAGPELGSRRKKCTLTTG
Experiment: FACS on 293T-hIL36R-NFκB cells, ratio of MFI to background MFI
Lab note — pEC50 values are minus log10 of concentrations in M.

Known pEC50 results, listed for orientation:
binder	pEC50
hz84C4-1.3 (antibody, human IgG4 S228P, kappa, V domains shown, Humanized, human IgG4 / kappa) VH: QVQLVQSGAEVKKPGASVKVSCKASGYFFTSYWMNWVRQAPGQGLEWMGMIYPYDSETRYAQKFQGRVTMTVDKSTSTVYMELSSLRSEDTAVYYCASSTTAFAYWGQGTLVTVSS VL: DIQMTQSPSSLSASVGDRVTITCRASQDIGNALNWYQQKPGKAPKRLIYATSSLDPGVPSRFSGSRSGTDFTLTISSLQPEDFATYYCLQYASSPYTFGQGTKVEIKR	7.74
hz84C4-1.4 (antibody, human IgG4 S228P, kappa, V domains shown, Humanized, human IgG4 / kappa) VH: QVQLVQSGAEVKKPGASVKVSCKASGYYFTSYWMNWVRQAPGQGLEWMGMIHPYDSETRLAQKFKGRVTMTVDKSTSTVYMELSSLRSEDTAVYYCASSTTAFAYWGQGTLVTVSS VL: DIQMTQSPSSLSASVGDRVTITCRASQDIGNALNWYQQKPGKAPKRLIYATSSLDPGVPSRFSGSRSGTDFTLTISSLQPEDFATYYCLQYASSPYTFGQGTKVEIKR	8.24

Quick one: give measured pEC50 for hz84C4-2.3 (antibody, human IgG4 S228P, kappa, V domains shown, Humanized, human IgG4 / kappa) VH: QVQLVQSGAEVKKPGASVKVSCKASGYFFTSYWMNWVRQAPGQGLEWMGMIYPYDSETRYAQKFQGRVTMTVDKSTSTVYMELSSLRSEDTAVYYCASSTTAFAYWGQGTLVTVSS VL: DIQMTQSPSSLSASVGDRVTITCRASQDIGNALNWLQQKPGKAPKRLIYATSSLDPGVPSRFSGSRSGTDYTLTISSLQPEDFATYYCLQYASSPYTFGQGTKVEIKR
7.84

Using the record for hz84C4-1.2 (antibody, human IgG4 S228P, kappa, V domains shown, Humanized, human IgG4 / kappa) VH: QVQLVQSGAEVKKPGASVKVSCKASGYFFTSYWMNWVRQAPGQGLEWMGYIHPYDSETRYAQKFQGRVTMTVDKSTSTVYMELSSLRSEDTAVYYCASSTTAFAYWGQGTLVTVSS VL: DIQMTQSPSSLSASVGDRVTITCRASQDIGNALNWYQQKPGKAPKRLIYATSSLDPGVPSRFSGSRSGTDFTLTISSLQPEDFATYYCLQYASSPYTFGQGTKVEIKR , state its measured pEC50.
8.22
